Tgt: recombinant USP1 protein (Homo sapiens, UniProt O94782, DEL125-138/DEL229-408/DEL608-737)
Sequence (O94782 with tags, fused parts or gaps DEL125-138/DEL229-408/DEL608-737): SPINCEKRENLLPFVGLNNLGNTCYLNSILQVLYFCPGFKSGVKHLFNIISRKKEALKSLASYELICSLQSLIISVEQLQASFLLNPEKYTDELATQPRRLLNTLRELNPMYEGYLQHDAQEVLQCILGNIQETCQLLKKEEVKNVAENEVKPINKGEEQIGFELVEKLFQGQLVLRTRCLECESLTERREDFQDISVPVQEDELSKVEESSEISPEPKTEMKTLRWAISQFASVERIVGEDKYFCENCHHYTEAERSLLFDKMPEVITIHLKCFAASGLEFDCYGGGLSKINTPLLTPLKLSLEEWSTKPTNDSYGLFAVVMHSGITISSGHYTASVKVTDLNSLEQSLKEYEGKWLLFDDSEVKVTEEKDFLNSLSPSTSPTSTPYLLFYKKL
Test description: Binding affinity to recombinant USP1 protein by differential scanning fluorimetry
Condition context: compound 100 µM; 0.03 mg/mL USP1 (Δ1-66, Δ125-138, Δ229-408, Δ608-737); Tm with compound minus Tm with DMSO; read-out: ΔTm (°C)
Experimental readout: ΔTm at 100 µM

Would you please look over these solved cases?
>>> observed_measurement("COCCNC(=O)c1cc2cnc(-c3c(OC)ncnc3C3CC3)nc2n1Cc1ccc(-c2nc(C(F)(F)F)cn2C(C)C)cc1")
"> 5 °C"
>>> observed_measurement("COc1ncnc(C2CC2)c1-c1ncc2cc(C(=O)NC[C@@H](C)O)n(Cc3ccc(-c4nc(C(F)(F)F)cn4C)cc3)c2n1")
"> 5 °C"
>>> observed_measurement("COc1ncnc(C2CC2)c1-c1ncc2cc(C(=O)NCC3(F)COC3)n(Cc3ccc(-c4nc(C(F)(F)F)cn4C(C)C)cc3)c2n1")
"> 5 °C"
>>> observed_measurement("COc1ncnc(C2CC2)c1-c1ncc2cc(C(=O)N[C@H]3CCN(C)C[C@@H]3F)n(Cc3ccc(-c4nc(C(F)(F)F)cn4C)cc3)c2n1")
"> 5 °C"
>>> observed_measurement("COc1ncnc(C2CC2)c1-c1ncc2cc(C(=O)NCC3(CO)CC3)n(Cc3ccc(-c4nc(C(F)(F)F)cn4C(C)C)cc3)c2n1")
"> 5 °C"

Request - read-out ΔTm at 100 µM | tested on recombinant USP1 protein (Homo sapiens, UniProt O94782, DEL125-138/DEL229-408/DEL608-737) | compound COc1ncnc(C2CC2)c1-c1ncc2cc(C(=O)NCCN)n(Cc3ccc(-c4nc(C(F)(F)F)cn4C(C)C)cc3)c2n1
> 5 °C

Request - read-out ΔTm at 100 µM | tested on recombinant USP1 protein (Homo sapiens, UniProt O94782, DEL125-138/DEL229-408/DEL608-737) | compound CNC(=O)c1cc2cnc(-c3cccnc3OC(F)F)nc2n1Cc1ccc(-c2nc(C(F)(F)F)cn2C(C)C)cc1
> 5 °C

Request - read-out ΔTm at 100 µM | tested on recombinant USP1 protein (Homo sapiens, UniProt O94782, DEL125-138/DEL229-408/DEL608-737) | compound COc1ncnc(C2CC2)c1-c1ncc2cc(C(=O)NC(C)(C)CO)n(Cc3ccc(-c4nc(C(F)(F)F)cn4C)cc3)c2n1
> 5 °C
